Here, each record is paired with measured melting point data.

// melting point lookup, key: O=C(O)CCCOc1cc(C(F)(F)F)cc(C(F)(F)F)c1
85 to 87 °C

Report melting point for O=C(CCc1cccc(C(F)(F)F)c1)NNC(=O)c1ccc2[nH]ncc2c1 please.
227 to 228 °C

Value lookup for melting point; key = CCOC(=O)c1oc(C(C)(C)C)cc1N
44 to 45 °C

Can you look up the measured melting point of NC[C@@H]1CCCc2cc(S(=O)(=O)Nc3cccc(F)c3)ccc21 for me?
122 to 123 °C

----------
assay endpoint: melting point

Which melting point value belongs to O=NSC1(CCOC(=O)CCC(=O)O)C2CC3CC(C2)CC1C3 (stereo unspecified) ?
63 to 70 °C

Fill in the blank: the reported melting point of CON(C)S(=O)(=O)c1ccccc1S(N)(=O)=O is ____.
136 to 140 °C

I have this molecule here, O=C(O)c1ccccc1Nc1ccc(CCc2ccc(O)c(O)c2)cc1 , and I need its recorded melting point.
215 to 217 °C

Continuing:
Which melting point reading was recorded for the molecule CN1Cc2cscc2N(CCc2ccccc2)c2ccccc21 ?
53 to 56 °C

Report melting point for Nc1ccc(OC(=O)C2CCCCC2)c(C(=O)O)c1 please.
116 to 121 °C

Please look up its melting point: Cc1ccc2c(c1)N(CC(=O)c1ccccc1C)C(=O)C(NC(=O)Nc1ccc(F)c(C(=O)O)c1)CN2C(=O)C(C)(C)C (stereo unspecified)
225 to 228 °C
